Molecular target: recombinant human 5-HT6 receptor (Homo sapiens)
Construct: expressed in transfected cells; cell membranes used
Sequence (P50406 whole entry): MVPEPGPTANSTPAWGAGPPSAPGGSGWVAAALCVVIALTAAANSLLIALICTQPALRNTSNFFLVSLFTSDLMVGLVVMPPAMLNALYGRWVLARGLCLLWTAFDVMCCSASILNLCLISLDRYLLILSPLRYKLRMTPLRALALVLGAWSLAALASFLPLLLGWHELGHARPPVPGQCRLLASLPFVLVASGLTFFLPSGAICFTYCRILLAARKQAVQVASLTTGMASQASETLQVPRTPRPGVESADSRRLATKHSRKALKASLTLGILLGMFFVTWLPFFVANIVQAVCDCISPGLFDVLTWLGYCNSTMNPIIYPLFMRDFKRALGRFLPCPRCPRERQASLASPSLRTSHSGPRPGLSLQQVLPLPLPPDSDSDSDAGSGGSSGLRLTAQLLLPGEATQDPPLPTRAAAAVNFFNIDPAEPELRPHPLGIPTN
Assay: Radioligand binding studies: competition for [3H]LSD binding in membranes of HEK293 cells
Conditions: [3H]LSD (5 nM), HEK293 cell membranes, 60 min at 37° C., pH 7.4
Method: The pharmacology of the compounds of this invention was determined by art recognized procedures. The binding activity of compounds of this invention in vitro was determined as follows. […] All determinations are made in assay buffer containing 50 mM Tris-HCl, 10 mM MgSO4, 0.5 mM EDTA, 1 mM ascorbic acid, pH 7.4 at 37° C., in a 250 microliter reaction volume. […] LSD is determined as radioactive counts per minute using Packard TopCount. […]
Recorded log10(Ki) for the following compounds
measured-metric: log10(Ki) (log10 of the value in nM)

smiles-record	log10(Ki)
CCCS(=O)(=O)c1cccc(S(=O)(=O)n2ccc3c(N4CCNCC4)cccc32)c1	0.19
O=S(=O)(c1cccs1)n1ccc2c(N3CCNCC3)cccc21	-0.35
CC(C)CS(=O)(=O)c1cccc(S(=O)(=O)n2ccc3c(N4CCNCC4)cccc32)c1	0.28
O=S(=O)(c1cccc2ccccc12)n1ccc2c(N3CCNCC3)cccc21	-0.80
O=S(=O)(c1ccccc1F)n1ccc2c(N3CCNCC3)cccc21	-1.28
CN1CCN(c2cccc3c2ccn3S(=O)(=O)c2ccc(F)cc2)CC1	-0.08
CS(=O)(=O)c1cccc(S(=O)(=O)n2ccc3c(N4CCNCC4)cccc32)c1	0.43
O=S(=O)(c1cccc(F)c1)n1ccc2c(N3CCNCC3)cccc21	-0.81
CC(C)(C)c1ccc(S(=O)(=O)n2ccc3c(N4CCNCC4)cccc32)cc1	0.55
O=S(=O)(c1cnc(Cl)c(Br)c1)n1ccc2c(N3CCNCC3)cccc21	0.75
CS(=O)(=O)c1cc(Br)cc(S(=O)(=O)n2ccc3c(N4CCNCC4)cccc32)c1	0.88
O=S(=O)(c1cc(Cl)cc(Cl)c1)n1ccc2c(N3CCNCC3)cccc21	-0.43
N#Cc1cccc(S(=O)(=O)n2ccc3c(N4CCNCC4)cccc32)c1	0.05
O=S(=O)(c1cc(Cl)ccc1Cl)n1ccc2c(N3CCNCC3)cccc21	-0.82
O=S(=O)(c1cccc(C(F)(F)F)c1)n1ccc2c(N3CCNCC3)cccc21	-0.70
COc1cccc(S(=O)(=O)n2ccc3c(N4CCNCC4)cccc32)c1	-0.43
O=S(=O)(c1ccc(Cl)cc1)n1ccc2c(N3CCNCC3)cccc21	-0.27
COc1ccc(OC)c(S(=O)(=O)n2ccc3c(N4CCNCC4)cccc32)c1	-0.03
O=S(=O)(c1ccccc1)n1cc(Br)c2c(N3CCNCC3)cccc21	-0.91
O=S(=O)(NC1CC1)c1cccc(S(=O)(=O)n2ccc3c(N4CCNCC4)cccc32)c1	0.10
CS(=O)(=O)c1ccc(S(=O)(=O)n2ccc3c(N4CCNCC4)cccc32)cc1	1.63
